pIC50: −log10 of the molar value.
measured_parameter: pIC50

INPUT: Give recorded pIC50 with Human FXIa (Homo sapiens, UniProt P03951) for the following compound: "CN1CCC(CNc2nccnc2C(=O)N[C@@H]2CCc3c2ccnc3N)CC1"
Sequence (P03951 388-625 limits assumed): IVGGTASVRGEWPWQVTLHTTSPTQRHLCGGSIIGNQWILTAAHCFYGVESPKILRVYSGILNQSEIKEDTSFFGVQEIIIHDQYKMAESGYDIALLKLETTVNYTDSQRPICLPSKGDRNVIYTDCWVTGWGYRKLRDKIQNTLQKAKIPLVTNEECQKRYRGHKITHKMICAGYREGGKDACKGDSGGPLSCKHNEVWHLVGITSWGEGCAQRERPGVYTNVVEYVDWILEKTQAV
Sequence (P03951 19-387 partner limits assumed): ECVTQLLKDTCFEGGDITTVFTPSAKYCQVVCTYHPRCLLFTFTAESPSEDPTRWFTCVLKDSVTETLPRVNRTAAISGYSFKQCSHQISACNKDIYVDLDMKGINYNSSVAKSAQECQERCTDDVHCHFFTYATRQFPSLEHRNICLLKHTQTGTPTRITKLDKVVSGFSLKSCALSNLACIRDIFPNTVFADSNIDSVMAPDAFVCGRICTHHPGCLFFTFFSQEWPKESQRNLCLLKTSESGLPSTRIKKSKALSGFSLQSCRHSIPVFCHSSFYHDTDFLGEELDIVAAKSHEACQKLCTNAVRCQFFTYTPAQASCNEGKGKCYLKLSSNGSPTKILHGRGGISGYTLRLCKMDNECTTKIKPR
OUTPUT: 4.40

INPUT: Give recorded pIC50 with Human FXIa (Homo sapiens, UniProt P03951) for the following compound: "CN1CCC(CNc2nccnc2C(=O)Nc2ccc(-c3n[nH]c(=O)[nH]3)cc2)CC1"
OUTPUT: < 4.40

INPUT: Give recorded pIC50 with Human FXIa (Homo sapiens, UniProt P03951) for the following compound: "Nc1nccc2cc(CNC(=O)c3cc(Cl)cnc3NCC3CCN(C4CC4)CC3)ccc12"
OUTPUT: < 4.40

INPUT: Give recorded pIC50 with Human FXIa (Homo sapiens, UniProt P03951) for the following compound: "COCCNc1ncc(C(=O)NCc2ccc3c(N)nccc3c2)cc1Cl"
OUTPUT: < 4.40

INPUT: Give recorded pIC50 with Human FXIa (Homo sapiens, UniProt P03951) for the following compound: "CN1CCC(CNc2nc(Cl)c(Cl)cc2C(=O)NCc2ccc3c(N)nccc3c2)CC1"
OUTPUT: < 4.40

INPUT: Give recorded pIC50 with Human FXIa (Homo sapiens, UniProt P03951) for the following compound: "Nc1nccc2cc(CNC(=O)c3nccnc3NCC3CCN(CCO)CC3)ccc12"
OUTPUT: < 4.40

INPUT: Give recorded pIC50 with Human FXIa (Homo sapiens, UniProt P03951) for the following compound: "Nc1nccc2cc(CNC(=O)c3cc(Cl)cnc3NC[C@H]3CCC(=O)N3)ccc12"
OUTPUT: 5.50

INPUT: Give recorded pIC50 with Human FXIa (Homo sapiens, UniProt P03951) for the following compound: "CN1CCC(CNc2nccnc2C(=O)NCc2cc(F)c3c(N)nccc3c2)CC1"
OUTPUT: < 4.40

---

This document collects pIC50 values reported for Human Factor XIIa (Homo sapiens, UniProt P00748).
pIC50: −log10 of the molar value.

INPUT: Sample "Nc1nccc2cc(CNC(=O)c3cnc(OCCN4CCCCC4)c(Cl)c3)ccc12" — what was its pIC50?
OUTPUT: 5.00 to 5.52

INPUT: Sample "CN(C)c1ccccc1Nc1ncc(Cl)cc1C(=O)NCc1ccc2c(N)nccc2c1" — what was its pIC50?
OUTPUT: 4.40 to 5.00

INPUT: Sample "Nc1nccc2cc(CNC(=O)c3cc(Cl)cnc3NC[C@@H]3CCC(=O)N3)ccc12" — what was its pIC50?
OUTPUT: 4.40 to 5.00

INPUT: Sample "CC(C)CN1CCC(CNc2ncc(Cl)cc2C(=O)NCc2ccc3c(N)nccc3c2)CC1" — what was its pIC50?
OUTPUT: 6.00 to 6.52

INPUT: Sample "CCOC(=O)c1cn(-c2ccc(OC)c(F)c2CNC(=O)c2nccnc2NCC2CCN(C)CC2)nn1" — what was its pIC50?
OUTPUT: 5.00 to 5.52

INPUT: Sample "CN1CCC(CNc2nccc(Cl)c2C(=O)NCc2ccc3c(N)nccc3c2)CC1" — what was its pIC50?
OUTPUT: 4.40 to 5.00

INPUT: Sample "CC(C)N(CCNc1ncc(Cl)cc1C(=O)NCc1ccc2c(N)nccc2c1)C(C)C" — what was its pIC50?
OUTPUT: 6.00 to 6.52

INPUT: Sample "CN1CCC(CNc2ncc(Cl)cc2C(=O)NCc2ccc3c(N)nccc3c2)CC1" — what was its pIC50?
OUTPUT: 6.00 to 6.52

---

Answer each item with its documented IC50.

INPUT: Give recorded IC50 with Human Factor XIIa (Homo sapiens, UniProt P00748) for the following compound: "Nc1nccc2cc(CNC(=O)c3cnc(NC4CCN(c5nccs5)CC4)c(Cl)c3)ccc12"
Sequence (P00748 373-615 limits assumed): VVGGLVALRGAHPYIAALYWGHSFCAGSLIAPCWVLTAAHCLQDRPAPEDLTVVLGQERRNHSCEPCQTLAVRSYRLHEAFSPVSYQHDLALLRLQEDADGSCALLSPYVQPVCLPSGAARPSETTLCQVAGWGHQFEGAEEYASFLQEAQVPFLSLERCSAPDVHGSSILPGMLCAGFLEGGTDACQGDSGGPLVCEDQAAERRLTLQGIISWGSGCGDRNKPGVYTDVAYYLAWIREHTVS
Sequence (P00748 20-372 partner limits assumed): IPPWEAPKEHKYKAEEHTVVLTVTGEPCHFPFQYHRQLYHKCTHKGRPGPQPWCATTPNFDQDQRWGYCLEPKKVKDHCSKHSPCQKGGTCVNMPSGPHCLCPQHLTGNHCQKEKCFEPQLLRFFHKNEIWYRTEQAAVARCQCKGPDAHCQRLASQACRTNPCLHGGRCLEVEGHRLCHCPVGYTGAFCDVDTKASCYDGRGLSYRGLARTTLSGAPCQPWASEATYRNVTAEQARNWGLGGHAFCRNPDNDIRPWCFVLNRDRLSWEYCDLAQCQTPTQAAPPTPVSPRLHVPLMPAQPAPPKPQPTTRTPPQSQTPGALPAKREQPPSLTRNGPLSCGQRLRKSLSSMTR
OUTPUT: 10 to 40 µM

INPUT: Give recorded IC50 with Human Factor XIIa (Homo sapiens, UniProt P00748) for the following compound: "Nc1nccc2cc(CNC(=O)c3cc(Cl)cnc3NCc3ccc(CN4CCCC4=O)cc3)ccc12"
OUTPUT: 10 to 40 µM

INPUT: Give recorded IC50 with Human Factor XIIa (Homo sapiens, UniProt P00748) for the following compound: "CN1CCC(CNc2nccnc2C(=O)NCc2ccc3ccnc(N)c3c2)CC1"
OUTPUT: 3 to 10 µM

INPUT: Give recorded IC50 with Human Factor XIIa (Homo sapiens, UniProt P00748) for the following compound: "Nc1nccc2cc(CNC(=O)c3cnc(NCc4ccccn4)c(Cl)c3)ccc12"
OUTPUT: 10 to 40 µM

INPUT: Give recorded IC50 with Human Factor XIIa (Homo sapiens, UniProt P00748) for the following compound: "COc1cnc(NCC2CCN(C)CC2)c(C(=O)NCc2ccc3c(N)nccc3c2)c1"
OUTPUT: 1 to 3 µM

INPUT: Give recorded IC50 with Human Factor XIIa (Homo sapiens, UniProt P00748) for the following compound: "CN(C)c1ccc(CNc2ncc(C(=O)NCc3ccc4c(N)nccc4c3)cc2Cl)cc1"
OUTPUT: 3 to 10 µM

INPUT: Give recorded IC50 with Human Factor XIIa (Homo sapiens, UniProt P00748) for the following compound: "Nc1nccc2cc(CNC(=O)c3cncc(CN4CCNCC4)c3)ccc12"
OUTPUT: 10 to 40 µM

INPUT: Give recorded IC50 with Human Factor XIIa (Homo sapiens, UniProt P00748) for the following compound: "Nc1nccc2cc(CNC(=O)c3cc(Cl)cnc3OCCN3CCCC3)ccc12"
OUTPUT: 10 to 40 µM

---

This document collects IC50 values reported for Human Factor XIIa (Homo sapiens).

INPUT: Give recorded IC50 with Human Factor XIIa (Homo sapiens) for the following compound: "CN(C)CCCNc1ncc(Cl)cc1C(=O)NCc1ccc2c(N)nccc2c1"
OUTPUT: 1 to 3 µM

INPUT: Give recorded IC50 with Human Factor XIIa (Homo sapiens) for the following compound: "Nc1nccc2cc(CNC(=O)c3cc(Cl)cnc3NC[C@H]3CCC(=O)N3)ccc12"
OUTPUT: 10 to 40 µM

INPUT: Give recorded IC50 with Human Factor XIIa (Homo sapiens) for the following compound: "Cc1cc(C(=O)NCc2ccc3c(N)nccc3c2)c(NCC2CCN(C)CC2)nc1C"
OUTPUT: 0.3 to 1 µM

INPUT: Give recorded IC50 with Human Factor XIIa (Homo sapiens) for the following compound: "CN1CCC(CNc2nccnc2C(=O)Nc2ccc3c(c2)C(=O)NC3)CC1"
OUTPUT: 10 to 40 µM

INPUT: Give recorded IC50 with Human Factor XIIa (Homo sapiens) for the following compound: "CN1CCC(CNc2nccnc2C(=O)Nc2ccc3c(N)nccc3c2)CC1"
OUTPUT: 10 to 40 µM

INPUT: Give recorded IC50 with Human Factor XIIa (Homo sapiens) for the following compound: "Nc1nccc2cc(CNC(=O)c3cnc(N4CC(O)C4)c(Cl)c3)ccc12"
OUTPUT: 10 to 40 µM

INPUT: Give recorded IC50 with Human Factor XIIa (Homo sapiens) for the following compound: "COc1ccc(Nc2ncc(C(=O)NCc3ccc4c(N)nccc4c3)cc2Cl)cc1"
OUTPUT: 10 to 40 µM

INPUT: Give recorded IC50 with Human Factor XIIa (Homo sapiens) for the following compound: "CN1CCC(CNc2nc(-c3cccnc3)ccc2C(=O)NCc2ccc3c(N)nccc3c2)CC1"
OUTPUT: 0.3 to 1 µM

INPUT: Give recorded IC50 with Human Factor XIIa (Homo sapiens) for the following compound: "Nc1nccc2cc(CNC(=O)c3cc(Cl)cnc3NCC3CCN(Cc4cscn4)CC3)ccc12"
OUTPUT: 3 to 10 µM

INPUT: Give recorded IC50 with Human Factor XIIa (Homo sapiens) for the following compound: "COCCN1CCC(Nc2ncc(C(=O)NCc3ccc4c(N)nccc4c3)cc2Cl)CC1"
OUTPUT: 10 to 40 µM

INPUT: Give recorded IC50 with Human Factor XIIa (Homo sapiens) for the following compound: "C[C@@H]1CCC[C@H](C)N1CC(=O)Nc1cc(Cl)cc(C(=O)NCc2ccc3c(N)nccc3c2)c1"
OUTPUT: 3 to 10 µM

INPUT: Give recorded IC50 with Human Factor XIIa (Homo sapiens) for the following compound: "CC(=O)NCCN1CCN(c2ncc(Cl)cc2C(=O)NCc2ccc3c(N)nccc3c2)CC1"
OUTPUT: 3 to 10 µM

INPUT: Give recorded IC50 with Human Factor XIIa (Homo sapiens) for the following compound: "CN1CCC(CNc2nccnc2C(=O)NCc2cc(F)c3c(N)nccc3c2)CC1"
OUTPUT: 10 to 40 µM

INPUT: Give recorded IC50 with Human Factor XIIa (Homo sapiens) for the following compound: "CN(C)CCOc1ncc(Cl)cc1C(=O)NCc1ccc2c(N)nccc2c1"
OUTPUT: 10 to 40 µM

INPUT: Give recorded IC50 with Human Factor XIIa (Homo sapiens) for the following compound: "COCCNc1ncc(C(=O)NCc2ccc3c(N)nccc3c2)cc1Cl"
OUTPUT: 10 to 40 µM

INPUT: Give recorded IC50 with Human Factor XIIa (Homo sapiens) for the following compound: "Nc1nccc2cc(CNC(=O)c3cnc(OCc4cccnc4)c(Cl)c3)ccc12"
OUTPUT: 10 to 40 µM

INPUT: Give recorded IC50 with Human Factor XIIa (Homo sapiens) for the following compound: "CN1CCC(CNc2cccc(C(=O)NCc3ccc4c(N)nccc4c3)n2)CC1"
OUTPUT: 1 to 3 µM
